# target-entity: cathepsin L (Homo sapiens, UniProt P07711)
# Construct: purchased Calbiochem 219402
# Sequence (P07711 114-288 limits assumed): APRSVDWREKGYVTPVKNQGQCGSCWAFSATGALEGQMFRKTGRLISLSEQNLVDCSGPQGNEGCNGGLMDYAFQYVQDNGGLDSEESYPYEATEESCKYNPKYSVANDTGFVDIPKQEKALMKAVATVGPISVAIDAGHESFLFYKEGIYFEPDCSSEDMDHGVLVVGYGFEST
# Sequence (P07711 292-333 limits assumed): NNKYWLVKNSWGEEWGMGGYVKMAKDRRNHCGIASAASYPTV
# run-description: Inhibition of cathepsin L
# Format: biochemical
# experimental-setup: pH 6, 1 uM, Cbz-Phe-Arg-AMC 0.006 mM, read-out: Cat L % I @ 1 uM
property: inhibition at 1 µM (%)
Give the number; % is assumed, so skip it.

Here's what some known entries look like.
compound | inhibition at 1 µM (%)
CCNC(=O)C(=O)C(CC)NC(=O)C(CC(=O)C(c1ccccc1)c1ccccc1)CC(C)C (stereo not shown) [Compound 8c, Ph2 CHCOCH2 CH(iBu)CO-Abu-CONHEt] | 100
CCNC(=O)C(=O)C(CC)NC(=O)C(CC(=O)[C@H](CC(C)C)NC(=O)OCc1ccccc1)CC(C)C (stereo partly shown) [Compound 8e, Z-Leu-CH2 CH(iBu)CO-Abu-CONHEt] | 95
CCNC(=O)C(=O)C(CC)NC(=O)C(CC(=O)CCCCc1ccccc1)CC(C)C (stereo not shown) [Compound 8a, Ph(CH2)4 COCH2 CH(iBu)CO-Abu-CONHEt] | 81

QUERY: # return recorded inhibition at 1 µM for input CC(C)CC(CC(=O)CCCCc1ccccc1)C(=O)N[C@H](C=O)CC(C)C (stereo partly shown) [Compound 16a, Ph(CH2)4 COCH2 CH(iBu)CO-Leu-H]
RESULT: 100

====

# target-entity: cathepsin L (Homo sapiens)
# Construct: purchased Calbiochem 219402
# run-description: Inhibition of cathepsin L
# Assay type: biochemical
# experimental-setup: pH 6, 1 uM, Cbz-Phe-Arg-AMC 0.006 mM, read-out: Cat L % I @ 1 uM
Measured inhibition at 1 µM, listed per entry for reference.
Answer format: number, then unit.

compound | inhibition at 1 µM
CC(C)CC(CC(=O)C(c1ccccc1)c1ccccc1)C(=O)N[C@H](C=O)CC(C)C (stereo partly drawn) [Compound 16c, Ph2 CHCOCH2 CH(iBu)CO-Leu-H] | 100%

QUERY: Enter recorded inhibition at 1 µM with cathepsin L (Homo sapiens) for CC(C)CC(CC(=O)C1c2ccccc2Oc2ccccc21)C(=O)N[C@H](C=O)CC(C)C (stereo partly drawn) [Compound 16d, Xanthene-COCH2 CH(iBu)CO-Leu-H] here.
RESULT: 100%

QUERY: Answer briefly: inhibition at 1 µM recorded on cathepsin L (Homo sapiens) for CCC(C(=O)CC(CC(C)C)C(=O)N[C@H](C=O)CC(C)C)c1ccccc1 (stereo partly drawn) [Compound 16b, CH3 CH2 CH(Ph)COCH2 CH(iBu)CO-Leu-H]
RESULT: 100%

QUERY: State inhibition at 1 µM on cathepsin L (Homo sapiens). Entry: CCNC(=O)C(=O)C(CC(C)C)NC(=O)C(CC(=O)C1c2ccccc2Oc2ccccc21)CC(C)C (stereo not drawn)
RESULT: 100%

QUERY: Recall the reported inhibition at 1 µM of CCNC(=O)C(=O)C(CC)NC(=O)C(CC(=O)C1c2ccccc2Oc2ccccc21)CC(C)C (stereo not drawn) on cathepsin L (Homo sapiens) and write it down.
RESULT: 100%

QUERY: Report measured inhibition at 1 µM on cathepsin L (Homo sapiens); entry: CCNC(=O)C(=O)C(CC)NC(=O)C(CC(=O)[C@@H](CC)c1ccccc1)CC(C)C (stereo partly drawn)
RESULT: 98%

====

# target-entity: cathepsin B (Homo sapiens)
# Construct: purchased Calbiochem 219364
# run-description: Inhibition of cathepsin B
# Assay type: biochemical
# experimental-setup: pH 6, 1 uM, Cbz-Phe-Arg-AMC 0.1 mM, read-out: Cat B % I @ 1 uM
As shown below, each of these molecules has a reported inhibition at 1 µM value.
Reply with just the number (in %).

Some molecules with known inhibition at 1 µM results, for comparison:
molecule | property | observed
CC(C)CC(CC(=O)CCCCc1ccccc1)C(=O)N[C@H](C=O)CC(C)C (stereo partly shown) [Compound 16a, Ph(CH2)4 COCH2 CH(iBu)CO-Leu-H] | inhibition at 1 µM | 97
CCNC(=O)C(=O)C(CC)NC(=O)C(CC(=O)[C@H](CC(C)C)NC(=O)OCc1ccccc1)CC(C)C (stereo partly shown) | inhibition at 1 µM | 100
CCNC(=O)C(=O)C(CC)NC(=O)C(CC(=O)CCCCc1ccccc1)CC(C)C (stereo not shown) | inhibition at 1 µM | 10

Now let's try a different one.
QUERY: Could you please provide reported inhibition at 1 µM for CCNC(=O)C(=O)C(CC)NC(=O)C(CC(=O)[C@@H](CC)c1ccccc1)CC(C)C (stereo partly shown) ? Thanks!
RESULT: 84

====

# target-entity: α-chymotrypsin (Bos taurus)
# Construct: purchased Sigma Chem. Co. C-3142
# run-description: Inhibition of α-chymotrypsin
# Format: biochemical
# experimental-setup: pH 7.5, 10 μM, 0.03 mM Succ-Ala-Ala-Pro-Phe-AMC, read-out: Chymotrypsin % I @
property: inhibition at 10 µM (%)
Number in %, nothing else.

Example results:
compound | units-text | inhibition at 10 µM
CCNC(=O)C(=O)C(CC)NC(=O)C(CC(=O)C(c1ccccc1)c1ccccc1)CC(C)C (centres unmarked) | % | 6
CC(C)CC(CC(=O)C1c2ccccc2Oc2ccccc21)C(=O)N[C@H](C=O)CC(C)C (some centres unmarked) [Compound 16d, Xanthene-COCH2 CH(iBu)CO-Leu-H] | % | 98

QUERY: Answer with reported inhibition at 10 µM of CCNC(=O)C(=O)C(CC(C)C)NC(=O)C(CC(=O)C1c2ccccc2Oc2ccccc21)CC(C)C (centres unmarked)
RESULT: 93

QUERY: Tell us which inhibition at 10 µM value is on record for CCNC(=O)C(=O)C(CC)NC(=O)C(CC(=O)[C@@H](CC)c1ccccc1)CC(C)C (some centres unmarked)
RESULT: 0

QUERY: Give the value of inhibition at 10 µM reported for the following: CC(C)CC(CC(=O)[C@H](CC(C)C)NC(=O)OCc1ccccc1)C(=O)NC(Cc1ccccc1)C(=O)CF (some centres unmarked) [Compound 14c, Z-Leu-CH2 CH(iBu)CO-Phe-CH2 F]
RESULT: 82

====

Each entry below carries its recorded inhibition at 10 µM.
# target-entity: thrombin (Homo sapiens, UniProt P00734)
# Construct: purchased Sigma Chem. Co. T-7009
# run-description: Inhibition of thrombin
# Format: biochemical
# experimental-setup: 25 μM Bz-Phe-Val-Arg-AMC, pH 7.5, read-out: Thrombin % I @ 10 uM
# Experimental: To evaluate inhibitory activity, stock solutions (40 times concentrated) of each compound to be tested were prepared in 100% anhydrous DMSO and 5 μL of each inhibitor preparation were aliquoted into each of three wells of a 96-well plate. […] Substrate hydrolysis was monitored every 5 minutes for a total of 30 minutes using a Fluoroskan II fluorescence plate reader. […]
Your answer is read as %, so omit the unit and give the number.

# count of solved cases: 2
molecule | units-text | observed
CC(C)CC(CC(=O)C(c1ccccc1)c1ccccc1)C(=O)N[C@H](C=O)CC(C)C (stereo partly drawn) [Compound 16c, Ph2 CHCOCH2 CH(iBu)CO-Leu-H] | % | 1
CCC(C(=O)CC(CC(C)C)C(=O)N[C@H](C=O)CC(C)C)c1ccccc1 (stereo partly drawn) [Compound 16b, CH3 CH2 CH(Ph)COCH2 CH(iBu)CO-Leu-H] | % | 0

Please find the next molecule below.
QUERY: Retrieve inhibition at 10 µM measured for CCNC(=O)C(=O)C(CC)NC(=O)C(CC(=O)CCCCc1ccccc1)CC(C)C (stereo not drawn) and print it.
RESULT: 0

====

# target-entity: Calpain I (Homo sapiens, UniProt P07384)
# Construct: made in house
# Sequence (P07384 whole entry): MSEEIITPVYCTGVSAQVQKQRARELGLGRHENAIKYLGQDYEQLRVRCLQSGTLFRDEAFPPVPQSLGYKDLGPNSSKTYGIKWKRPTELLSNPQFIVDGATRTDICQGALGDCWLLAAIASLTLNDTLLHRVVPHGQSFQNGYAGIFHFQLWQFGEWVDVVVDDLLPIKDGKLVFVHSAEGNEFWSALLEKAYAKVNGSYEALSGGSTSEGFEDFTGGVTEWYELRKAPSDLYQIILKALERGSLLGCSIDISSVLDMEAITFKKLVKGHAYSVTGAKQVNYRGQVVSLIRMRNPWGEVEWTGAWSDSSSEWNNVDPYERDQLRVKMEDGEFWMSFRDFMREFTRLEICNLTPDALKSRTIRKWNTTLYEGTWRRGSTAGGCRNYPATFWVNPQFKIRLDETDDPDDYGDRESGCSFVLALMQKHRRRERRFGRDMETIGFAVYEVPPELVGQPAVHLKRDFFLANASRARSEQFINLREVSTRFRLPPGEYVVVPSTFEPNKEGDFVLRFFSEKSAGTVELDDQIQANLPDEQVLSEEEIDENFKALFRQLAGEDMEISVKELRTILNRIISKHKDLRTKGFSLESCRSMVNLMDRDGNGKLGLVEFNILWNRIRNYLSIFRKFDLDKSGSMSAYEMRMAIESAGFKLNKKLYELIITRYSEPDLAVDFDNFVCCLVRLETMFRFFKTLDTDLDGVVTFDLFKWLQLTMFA
# Sequence (P04632 whole entry partner): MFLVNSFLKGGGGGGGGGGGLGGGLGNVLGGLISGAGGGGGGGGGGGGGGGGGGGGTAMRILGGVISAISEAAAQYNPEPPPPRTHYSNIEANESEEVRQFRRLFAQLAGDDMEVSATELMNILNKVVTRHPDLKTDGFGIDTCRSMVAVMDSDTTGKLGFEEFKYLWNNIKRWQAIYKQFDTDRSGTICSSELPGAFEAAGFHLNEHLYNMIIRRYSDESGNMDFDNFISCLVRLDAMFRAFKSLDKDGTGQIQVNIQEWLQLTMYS
# run-description: Inhibition of calpain I activity (IC50, fluorescence plate reader)
# Type: biochemical
# experimental-setup: substrate 0.2 mM Succ-Leu-Tyr-MNA, pH 7.5
# Description: To evaluate inhibitory activity, stock solutions (40 times concentrated) of each compound to be tested were prepared in 100% anhydrous DMSO and 5 μL of each inhibitor preparation were aliquoted into each of three wells of a 96-well plate. […] Substrate hydrolysis was monitored every 5 minutes for a total of 30 minutes using a Fluoroskan II fluorescence plate reader. […]
Quick reference: IC50 of the listed items.
Give a bare numeral; the unit µM is implied.

compound | IC50 (µM)
CC(C)CC(CC(=O)N1CCc2ccccc2C1)C(=O)N[C@H](C=O)Cc1ccccc1 (single isomer, unassigned) [Compound 16f-I, 2-THIQ-COCH2 CH(iBu)Cd-Phe-H] | 0.028
CCNC(=O)C(=O)C(CC)NC(=O)C(CC(=O)[C@H](CC(C)C)NC(=O)OCc1ccccc1)CC(C)C (stereo partly drawn) | 0.38
CCNC(=O)C(=O)C(CC)NC(=O)C(CC(=O)CCCCc1ccccc1)CC(C)C (stereo not drawn) | 8.44
CCC(C(=O)CC(CC(C)C)C(=O)N[C@H](C=O)CC(C)C)c1ccccc1 (stereo partly drawn) [Compound 16b, CH3 CH2 CH(Ph)COCH2 CH(iBu)CO-Leu-H] | 0.055
CC(C)CC(CC(=O)C(c1ccccc1)c1ccccc1)C(=O)N[C@H](C=O)CC(C)C (stereo partly drawn) [Compound 16c, Ph2 CHCOCH2 CH(iBu)CO-Leu-H] | 0.05

Now examine the next entry.
QUERY: Supply measured IC50 of CC(C)CC(CC(=O)N1CCN(c2ccccc2)CC1)C(=O)N[C@H](C=O)CC(C)C (single isomer, unassigned) [Compound 16g-II, Ph-Piperazine-COCH2 CH(iBu)CO-Leu-H] in your reply.
RESULT: 4.5
